Documented growth across a set of molecules
# Tested on: SK-MEL-5 melanoma
# MEASUREMENT_PROTOCOL: NCI-60 one-dose screen, 48 h (100 = growth as untreated, 0 = no growth, -100 = all killed)
# CONDITION: 10 µM
This is part of a sample that, as a whole, favours compounds with a hit. Of some 83,000 tested, about 20% had one in any assay.
Please reply with the bare figure in % and do not write the unit itself.

Answered examples (6):
{"MOLECULE": "COc1cc(C2CC(c3ccc(Oc4ccc(Cl)cc4)cc3)=NN2c2nc(-c3ccc(Cl)cc3)c(C#N)c(N3CCOCC3)n2)cc(OC)c1OC (centres undefined)", "growth, %": 97.8}
{"MOLECULE": "COc1cccc(C(=O)CSc2nc(-c3ccc(OCc4ccccc4)c(OC)c3)c(C#N)c(=O)[nH]2)c1", "growth, %": 98.5}
{"MOLECULE": "O=C1S/C(=C\\c2ccc([N+](=O)[O-])cc2)C(=O)N1CCN1CCCCC1", "growth, %": 101}
{"MOLECULE": "O=C1NC2C=CC=CC2/C1=C1/SC(=S)N(C2CC(=O)N(c3ccc(Br)cc3)C2=O)C1=O (centres undefined)", "growth, %": 100}
{"MOLECULE": "CC1(C)CC(=O)C2=C(C1)N(Cc1ccc(C(=O)O)cc1)C1=C(C(=O)CC(C)(C)C1)C2c1ccc(Cl)cc1", "growth, %": 99.9}
{"MOLECULE": "Fc1ccc(/C=C/c2nc3ccccc3n3c(-c4ccc(Cl)cc4)nnc23)cc1", "growth, %": 76.5}

Param item = `COc1ccc(Cc2nn(CC(=O)N/N=C/c3ccc(Br)cc3)c(=O)c3c(C)noc23)cc1` ; retrieve measured growth.
85.7

Again, but for `Cn1cc(-c2nc(N)nnc2-c2c[nH]c3ccccc23)c2cc(Br)cnc21`
-81.3

Now the molecule Cc1ccc2sc3c(c2c1)Oc1nc[nH]c(=O)c1C3c1cccc(F)c1 (centres undefined)
96.4

----------
Parameter: growth. Scope: all listed entries.
# Test system: MDA-MB-468 breast
# MEASUREMENT_PROTOCOL: NCI-60 one-dose screen, 48 h (100 = growth as untreated, 0 = no growth, -100 = all killed)
# CONDITION: 10 µM unless noted
About 83,000 compounds went through this panel and 20% of them were active in at least one assay; those are over-represented in the sample as a whole.
Answer in %, number only, no unit symbol.

Below, 8 compounds whose answers are already recorded.
{"TEST_SMILES": "O=C(CSc1nc2sc3c(c2c(=O)n1-c1ccc(Cl)cc1)CCCC3)NNC(=O)Nc1cccc(C(F)(F)F)c1", "READING_UNIT": "%", "VAL": 8.29}
{"TEST_SMILES": "COc1nc2ccc(C)cc2cc1-c1nc2c(cnn2-c2ccccc2)c(=O)[nH]1", "READING_UNIT": "%", "VAL": 69.4}
{"TEST_SMILES": "C#CCOc1ccc2ncnc(Nc3cccc(NC(=O)CCl)c3)c2c1", "READING_UNIT": "%", "VAL": 68.5}
{"TEST_SMILES": "COc1cc(OC)c(S(N)(=O)=O)cc1C(=O)/C=C/c1ccc(Cl)cc1", "READING_UNIT": "%", "VAL": -57.8}
{"TEST_SMILES": "Cc1cc(SCc2ccccc2)nc(N)n1", "READING_UNIT": "%", "VAL": 110}
{"TEST_SMILES": "CC(C)C(=O)Nc1ccc(-c2nc(-c3cccc(OCCN4CCOCC4)c3)c(-c3ccnc(Br)c3)[nH]2)cc1", "READING_UNIT": "%", "VAL": 23.2}
{"TEST_SMILES": "COc1ccc(-c2cc(-c3nnc(SCC(=O)Nc4ccc(C(C)=O)cc4)o3)c3ccccc3n2)cc1", "READING_UNIT": "%", "VAL": 45.5}
{"TEST_SMILES": "CCN1CCN(Cc2ccc(NC(=O)c3nc4ccc5[nH]ncc5c4c4c3CCCC4)cc2C(F)(F)F)CC1", "READING_UNIT": "%", "VAL": -51.9}

Please give the measured growth for this compound: `O=C1c2cc(Cl)ccc2Oc2cc([N+](=O)[O-])ccc2N1c1ccc(F)cc1F`
91.6

Try the compound `Cn1ccnc1C(=O)/C=C/c1ccc(CNC(=O)c2c(F)c(F)c(F)c(F)c2F)cc1`
26.8

----------
# Test system: MDA-MB-468 breast
# MEASUREMENT_PROTOCOL: NCI-60 one-dose screen, 48 h
# CONDITION: 10 µM unless noted
This is part of a sample that, as a whole, favours compounds with a hit. Of some 83,000 tested, about 20% had one in any assay. Activity calls are given as the source filed them. The calls were made as follows: active = growth percent below 10; inactive = the rest.
Output constraint: value belongs to true for active, false for inactive

{"COMPOUND": "CN(C)CCn1cc(-c2ccc3c(Nc4ccc(CC(=O)Nc5cccc(F)c5)cc4)ncnc3c2)cn1", "CLASSIFICATION": "true"}
{"COMPOUND": "Cn1c([N+](=O)[O-])cnc1/C=C1\\Oc2cc(Cl)ccc2C1=O", "CLASSIFICATION": "false"}
{"COMPOUND": "O=C1Nc2c(ccc(Cl)c2Cl)/C1=C/c1ccc(O)cc1", "CLASSIFICATION": "false"}
{"COMPOUND": "CCN(CCO)CC(C)Nc1ccc([N+](=O)[O-])c2sc3ccccc3c(=O)c12 (stereo not given)", "CLASSIFICATION": "false"}

Record lookup: outcome of this test for `CN1/C(=C\C=C\C2=[N+](C)c3ccccc3C2(C)C)C(C)(C)c2ccccc21` ?
true

----------
# Tested on: MDA-MB-468 breast
# MEASUREMENT_PROTOCOL: NCI-60 one-dose screen, 48 h
# CONDITION: 10 µM unless noted
The panel holds about 83,000 compounds, 20% with a hit somewhere; the sample as a whole holds those more often. Calls of active or inactive are those of the source. How the source made its calls: active means growth percent below 10; inactive means the rest.
Choose the fitting class; nothing outside 1 = active, 0 = inactive is accepted.

Consider the following illustrative entries.
{"COMPOUND": "COC(=O)[C@H](Cc1cn(C)cn1)NC(=O)[C@@H](NC(=O)Nc1cc(C(F)(F)F)cc(C(F)(F)F)c1)C(C)C", "CLASSIFICATION": 1}
{"COMPOUND": "CCCCCCCCCCCCOc1ccccc1C=O", "CLASSIFICATION": 0}
{"COMPOUND": "CC(O)CN(CCO)CCN(CCO)CC(C)O (stereo not given)", "CLASSIFICATION": 0}
{"COMPOUND": "COC(=O)C(CCC(=O)CCl)N1C(=O)c2ccccc2C1=O (stereo not given)", "CLASSIFICATION": 0}

Please share the test call associated with `O=C(c1c(F)ccc(NS(=O)(=O)N2CC[C@@H](F)C2)c1F)c1c[nH]c2ncc(-c3cnc(C4CC4)nc3)cc12` .
0

Input CC(C)(C)NCCC(O)c1cc(C(F)(F)F)nc2c(C(F)(F)F)cccc12 (stereo not given)
0

Another compound: `Cc1c(O)cc(-c2cnc(N/N=C\c3ccc(Cl)cc3)s2)c(O)c1C`
0

Further, for `c1ccc(Cc2cccc[n+]2C(c2ccccc2)c2ccccc2)cc1` ?
1

Param item: `C#CCOc1ccc2ncnc(Nc3cccc(CNC(=O)C=C)c3)c2c1`
0

One more compound: `CNC(=O)c1cc(Oc2ccc3c(c2)sc2nc(-c4ccc(NC(C)=O)cc4)cn23)ccn1`
0

What do we get for `CCC(C)(c1ccc(O)c(C)c1)c1ccc(O)c(C)c1` ?
0

For `CCOc1ccc(NC(=O)c2ccoc2COc2ccccc2)cc1` then?
0

----------
# Test system: MDA-MB-468 breast
# MEASUREMENT_PROTOCOL: NCI-60 one-dose screen, 48 h
# CONDITION: 10 µM unless noted
About 83,000 compounds went through this panel and 20% of them were active in at least one assay; those are over-represented in the sample as a whole. Calls of active or inactive are those of the source. How the source made its calls: active means growth percent below 10; inactive means the rest.
Mark one answer only. Choices: active, inactive

{"MOLECULE": "O=C(NCCN1CCCC1)c1ccc(-c2nc3ccc4[nH]ncc4c3c3c2CCCC3)cc1", "CLASSIFICATION": "active"}

Dear all, I need the recorded test outcome for O=C(/C=C/C12c3ccccc3C(c3ccccc31)C1C(=O)NC(=O)C12)c1ccco1 (stereo not given) , thank you.
inactive

`CC(=O)Oc1cccc(S(=O)(=O)n2cc(C(=O)C(=O)Nc3ccncc3)c3ccccc32)c1` ?
active

Again, but for `O=C(CCNC(=O)c1nc(-c2ccccc2)n(-c2ccc(Cl)cc2)n1)NO`
inactive

// query: `CC[C@]12C=CCN3CC[C@@]4(c5cc(NC(=O)COc6cc(O)c7c(=O)cc(-c8ccccc8)oc7c6)c(OC)cc5N(C)[C@H]4[C@@](O)(C(=O)OC)[C@@H]1OC(C)=O)[C@@H]32`
active

Check `C#CCOc1ccc(/C=N/Nc2nc(-c3cc4cc(Br)cc(Br)c4oc3=O)cs2)cc1` too.
inactive

Next entry: `O=S(=O)(Nc1nccs1)c1ccc(Nc2nc(-c3ccncc3)cs2)cc1`
inactive
